# maps each entry to its IC50
System: BT-549
Assay: Cell viability assay (CellTiter-Glo)
Format: cell-based
Settings: Homo sapiens, 120 h; BT-549, 5 days

For orientation, consider the following solved cases.
COMPOUND	IC50
CC(=O)c1c(C)c2cnc(Nc3ccc(N4CCN(CC(=O)NCCOCCOCCOCCOCCOCCOCCNc5ccc(C(=O)Nc6ncc([N+](=O)[O-])s6)c(C)c5)CC4)cn3)nc2n(C2CCCC2)c1=O	< 2000 nM
CC(=O)c1c(C)c2cnc(Nc3ccc(N4CCNCC4)cn3)nc2n(C2CCCC2)c1=O [palbociclib, reference compound]	> 10000 nM
CC(=O)c1c(C)c2cnc(Nc3ccc(N4CCN(CC(=O)NCCOCCOCCOCCOCCNc5ccc(C(=O)Nc6ncc([N+](=O)[O-])s6)c(C)c5)CC4)cn3)nc2n(C2CCCC2)c1=O	< 2000 nM

Shifting focus to the compound that follows.
What does the record list as IC50 for `CC(=O)c1c(C)c2cnc(Nc3ccc(N4CCN(CC(=O)NCCOCCOCCOCCOCCOCCNc5ccc(C(=O)Nc6ncc([N+](=O)[O-])s6)c(C)c5)CC4)cn3)nc2n(C2CCCC2)c1=O` ? < 2000 nM

====

Molecular target: Human DDB1 (Homo sapiens (Human))
Assay: Surface plasmon resonance (SPR) binding assay to immobilized His-DDB1
Ends that are not written are not given here.
ENDPOINT_NAME: Kd

What does the record list as Kd for SRLNRRASF [Peptide 7] ? 20 to 100 µM

====

# maps each entry to its pKd
Biological target: Human DDB1 (Homo sapiens (Human), UniProt Q16531)
Sequence (Q16531 whole entry): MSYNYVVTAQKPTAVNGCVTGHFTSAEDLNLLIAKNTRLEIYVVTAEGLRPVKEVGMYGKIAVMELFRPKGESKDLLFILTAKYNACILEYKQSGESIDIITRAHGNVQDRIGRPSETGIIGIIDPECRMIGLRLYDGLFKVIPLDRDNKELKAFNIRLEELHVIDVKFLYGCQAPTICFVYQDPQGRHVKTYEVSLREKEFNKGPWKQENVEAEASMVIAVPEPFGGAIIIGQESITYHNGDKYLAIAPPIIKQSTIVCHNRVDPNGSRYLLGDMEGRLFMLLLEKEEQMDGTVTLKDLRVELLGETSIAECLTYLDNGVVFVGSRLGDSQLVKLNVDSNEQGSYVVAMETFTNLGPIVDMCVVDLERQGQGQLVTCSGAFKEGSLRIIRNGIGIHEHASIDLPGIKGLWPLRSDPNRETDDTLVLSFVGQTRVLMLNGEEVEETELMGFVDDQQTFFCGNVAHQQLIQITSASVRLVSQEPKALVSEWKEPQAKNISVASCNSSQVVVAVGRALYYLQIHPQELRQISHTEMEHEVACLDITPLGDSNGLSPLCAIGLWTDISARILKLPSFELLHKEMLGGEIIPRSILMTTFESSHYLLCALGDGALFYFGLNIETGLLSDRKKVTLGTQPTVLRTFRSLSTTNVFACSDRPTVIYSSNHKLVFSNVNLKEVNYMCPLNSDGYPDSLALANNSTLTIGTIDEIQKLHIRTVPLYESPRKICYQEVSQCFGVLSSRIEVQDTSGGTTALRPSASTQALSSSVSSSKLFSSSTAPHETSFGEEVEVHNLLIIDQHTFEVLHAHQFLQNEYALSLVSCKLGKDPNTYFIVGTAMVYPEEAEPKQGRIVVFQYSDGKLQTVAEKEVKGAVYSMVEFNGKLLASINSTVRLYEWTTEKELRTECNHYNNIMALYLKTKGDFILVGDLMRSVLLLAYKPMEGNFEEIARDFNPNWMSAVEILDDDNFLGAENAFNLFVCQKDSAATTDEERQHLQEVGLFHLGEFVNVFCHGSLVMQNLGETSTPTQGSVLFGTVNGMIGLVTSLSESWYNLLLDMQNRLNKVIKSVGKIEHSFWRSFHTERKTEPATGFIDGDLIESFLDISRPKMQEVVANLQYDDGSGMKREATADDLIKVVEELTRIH
Test: Surface plasmon resonance (SPR) binding assay to immobilized His-DDB1
Conditions: SPR, steady state affinity model, 25° C.; read-out: Binding (DDB1 binder activities, Kd)
pKd: −log10 of the molar value.

MOLECULE	EXPERIMENTAL_SYSTEM	pKd
CCCCNc1ccc(C(=O)Nc2nc(C(F)(F)F)c([N+](=O)[O-])s2)c(-c2ccccc2)c1 [B-114]	Human DDB1 (Homo sapiens (Human), UniProt Q16531)	> 4.70
CNC(=O)c1ccccc1C(=O)Nc1ncc([N+](=O)[O-])s1 [B-5]	Human DDB1 (Homo sapiens (Human), UniProt Q16531)	< 4.00
CCCCNc1ccc(C(=O)Nc2nc(C)c([N+](=O)[O-])s2)c(-c2ccccc2)c1 [B-111]	Human DDB1 (Homo sapiens (Human), UniProt Q16531)	4.00 to 4.70

What does the record list as pKd for CCCCNc1cccc(OC(C)=O)c1C(=O)Nc1ncc([N+](=O)[O-])s1 [B-19] ? 4.00 to 4.70

What does the record list as pKd for CC(=O)Nc1ccccc1C(=O)Nc1cccc([N+](=O)[O-])c1 [B-124, 2-Acetamido-N-(3-nitrophenyl)benzamide] ? > 4.70

What does the record list as pKd for CC(=O)Oc1ccccc1C(=O)Nc1nc(C)c([N+](=O)[O-])s1 [B-9] ? 4.00 to 4.70

What does the record list as pKd for Cc1ccccc1C(=O)Nc1nccs1 [B-176, 2-Methyl-N-(thiazol-2-yl)benzamide] ? > 4.70

What does the record list as pKd for CC(C)Nc1ccccc1C(=O)Nc1ncc([N+](=O)[O-])s1 [B-70] ? > 4.70

What does the record list as pKd for CC(=O)Oc1ccccc1C(=O)Nc1ncc([N+](=O)[O-])s1 [B-1] ? 4.00 to 4.70

What does the record list as pKd for Cc1cnc(NC(=O)c2ccccc2C)s1 [B-175] ? > 4.70

What does the record list as pKd for CC(=O)Nc1ccccc1C(=O)Nc1ncc(C(C)C)s1 [B-43] ? 4.00 to 4.70

These measurements were taken from patent US20240066136A1.
